System: biotinyl-Met-oxazolone
Assay: self-aminoacylation, catalytic enhancement (BMO) (fold over background); higher = more active; k-Seq, kA / k0A0; sequences stand for … in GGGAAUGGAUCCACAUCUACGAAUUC…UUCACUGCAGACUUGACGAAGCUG
This sample holds only a part of the variants without activity.
Categories are assigned from the measured self-aminoacylation using these intervals: LOW: < 1; MEDIUM: ≥ 1 and < 5; HIGH: ≥ 5

Would you please look over these solved cases?
Q: Lab log: AAGUUUGGUAAUAGUCGCACG [Fam3.1 aminoacylation ribozyme variant] — assign self-aminoacylation category
Ans: MEDIUM

Q: State the class of the sequence shown: CCACACUUCAGGCAGUCGGUC [Fam1B.1 aminoacylation ribozyme variant]
Ans: MEDIUM

Q: Determine which band this sequence sits in: AUUACCCGGGUCAGCGAGUGA [Fam2.1 aminoacylation ribozyme variant]
Ans: HIGH

Q: Could you place AUUACCCUGGUCAUCAAGGGA [Fam2.1 aminoacylation ribozyme variant] in its proper category? Many thanks.
Ans: LOW

More entries:
Q: Please report the category associated with AUUACCCUGGUCAUCACGUGA [Fam2.1 aminoacylation ribozyme variant] , nothing else.
Ans: HIGH

Q: For the record CUACUCCAAAGAAUCGGUCUG [Fam1A.1 aminoacylation ribozyme variant] , report the class its self-aminoacylation corresponds to.
Ans: LOW

Q: Which self-aminoacylation category applies to AUUCACCAAGGUCAUCGGGUG [Fam2.2 aminoacylation ribozyme variant] here?
Ans: HIGH

Q: Any idea which band AUUUACCUACGUCAUCGGGUG [Fam2.2 aminoacylation ribozyme variant] is in?
Ans: MEDIUM

Q: Lab note: which band did AAGUGUGCUAUUAGUCGCAAG [Fam3.1 aminoacylation ribozyme variant] land in?
Ans: MEDIUM

Q: Where would AAUUGUGCUAAUAGUCGCAAG [Fam3.1 aminoacylation ribozyme variant] land among the classes by reported self-aminoacylation?
Ans: MEDIUM

Q: Hey, which category is AUUACCCUGGGUAUCGAGUGA [Fam2.1 aminoacylation ribozyme variant] in, do you know?
Ans: HIGH

Q: Class for CUACUACAAACAAUCCGUCUG [Fam1A.1 aminoacylation ribozyme variant] ?
Ans: LOW
